molecular target: NA transporter (Rattus norvegicus); construct: synaptosomes were freshly isolated from rat brain regions; from tissue; host or cells: rat hypothalamus synaptosomes (P2 fraction); experiment: Noradrenaline reuptake inhibition (NA uptake inhibition) in rat brain synaptosomes; type: biochemical; settings: test concentration of 10^−5 M; synaptosomes (P2 fraction) from the hypothalamus of male rat brains
Sequence (Q9WTR4 1-597): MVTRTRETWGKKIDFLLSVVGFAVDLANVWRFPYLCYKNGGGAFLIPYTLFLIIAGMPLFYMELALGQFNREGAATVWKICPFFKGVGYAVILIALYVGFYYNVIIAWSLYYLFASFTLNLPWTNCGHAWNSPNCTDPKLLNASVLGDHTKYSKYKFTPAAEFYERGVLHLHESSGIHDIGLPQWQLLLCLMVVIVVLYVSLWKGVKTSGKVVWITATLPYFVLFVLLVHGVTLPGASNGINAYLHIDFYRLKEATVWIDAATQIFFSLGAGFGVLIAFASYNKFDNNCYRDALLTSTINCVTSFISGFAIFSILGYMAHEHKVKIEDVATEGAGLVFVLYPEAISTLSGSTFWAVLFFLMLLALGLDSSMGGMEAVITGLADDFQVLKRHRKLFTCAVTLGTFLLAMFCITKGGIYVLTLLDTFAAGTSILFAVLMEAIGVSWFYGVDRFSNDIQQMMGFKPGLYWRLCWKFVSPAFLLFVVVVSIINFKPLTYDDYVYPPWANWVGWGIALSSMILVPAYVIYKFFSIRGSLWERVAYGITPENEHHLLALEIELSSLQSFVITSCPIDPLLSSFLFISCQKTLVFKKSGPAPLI
measured_parameter: inhibition at 10 µM (%)
Could you give me the number in %? Just the number is fine.

molecule: Cc1ccc(C2(O)CCCC2CN2CCCC2)cc1 (centres unmarked)
units: %
inhibition at 10 µM: 78

molecule: OC1(Cc2ccccc2)CCCCCC1CN1CCCCCC1 (centres unmarked)
units: %
inhibition at 10 µM: 55

molecule: Cc1cc(C2(O)CCCCCC2CN2CCCC2)ccc1F (centres unmarked)
units: %
inhibition at 10 µM: 83

molecule: Cc1ccc(C2(O)CCCCC2CN2CCCC2)cc1 (centres unmarked)
units: %
inhibition at 10 µM: 59

Next molecule, please.
input: Sample OC1(CCCc2ccccc2)CCCCCC1CN1CCCC1 (centres unmarked) — what was its inhibition at 10 µM?
output: 63
